# MIC annotations
System: Aspergillus niger
Experiment: Antifungal activity against Aspergillus niger MTCC 1108 after 48 hrs
Type: functional
Conditions: MTCC 1108, 48 h
Express your answer in µM, writing the number without its unit.

COc1cc(/C=C/C(O)=C/C(/C=C/c2ccc(O)c(OC)c2)=N/c2ccc(S(=O)(=O)Nc3cc(C)on3)cc2)ccc1O 40

Next item in the queue.
Request: Fill blank: measured MIC of the molecule COc1ccc(NS(=O)(=O)c2ccc(/N=C(/C=C(O)/C=C/c3ccc(O)c(OC)c3)\C=C\c3ccc(O)c(OC)c3)cc2)nn1 is ____.
Response: 40

* * *

Test system: Bacillus cereus
Assay: Antimicrobial activity against Bacillus cereus MTCC 7350 assessed as diameter of inhibition zone at 20 uM after 24 hrs by Kirby -Baur disc diffusion method
Format: functional
Settings: MTCC 7350, 24 h, read-out: DIZ
# zone of inhibition at 20 µM annotations
Express your answer in mm, writing the number without its unit.

COc1ccc(NS(=O)(=O)c2ccc(/N=C(\C=C\c3ccc(O)c(OC)c3)CC(/C=C/c3ccc(O)c(OC)c3)=N/c3ccc(S(=O)(=O)Nc4ccc(OC)nn4)cc3)cc2)nn1 13
COc1ccc(NS(=O)(=O)c2ccc(/N=C(/C=C(O)/C=C/c3ccc(O)c(OC)c3)\C=C\c3ccc(O)c(OC)c3)cc2)nn1 9
O=C(O)c1cn(C2CC2)c2cc(N3CCNCC3)c(F)cc2c1=O 32

Request: Fill blank: measured zone of inhibition at 20 µM of the compound COc1cc(/C=C/C(O)=C/C(/C=C/c2ccc(O)c(OC)c2)=N/c2ccc(S(=O)(=O)Nc3cc(C)on3)cc2)ccc1O is ____.
Response: 13

Request: Fill blank: measured zone of inhibition at 20 µM of the compound COc1cc(/C=C/C(CC(/C=C/c2ccc(O)c(OC)c2)=N/c2ccc(S(=O)(=O)Nc3ccccn3)cc2)=N\c2ccc(S(=O)(=O)Nc3ccccn3)cc2)ccc1O is ____.
Response: 10

* * *

System: Trichoderma viride
Test: Antifungal activity against Trichoderma viride MTCC 1107 assessed as zone of inhibition at 20 uM after 48 hrs by disc diffusion method
Format: functional
Conditions: MTCC 1107, 48 h, read-out: IZ
PARAMETER: zone of inhibition at 20 µM (mm)
Express your answer in mm, writing the number without its unit.

COc1cc(/C=C/C(O)=C/C(/C=C/c2ccc(O)c(OC)c2)=N/c2ccc(S(=O)(=O)Nc3ccccn3)cc2)ccc1O 10
COc1ccc(NS(=O)(=O)c2ccc(/N=N/C(C(=O)/C=C/c3ccc(O)c(OC)c3)=C(O)\C=C\c3ccc(O)c(OC)c3)cc2)nn1 12
COc1ccc(NS(=O)(=O)c2ccc(/N=N/c3c(/C=C/c4ccc(O)c(OC)c4)nn(-c4ccccc4)c3/C=C/c3ccc(O)c(OC)c3)cc2)nn1 12

Request: Query zone of inhibition at 20 µM on Trichoderma viride for OC(Cn1cncn1)(Cn1cncn1)c1ccc(F)cc1F
Response: 21

Request: Query zone of inhibition at 20 µM on Trichoderma viride for COc1cc(/C=C/c2nn(-c3ccccc3)c(/C=C/c3ccc(O)c(OC)c3)c2/N=N/c2ccc(S(=O)(=O)Nc3ccccn3)cc2)ccc1O
Response: 10

Request: Query zone of inhibition at 20 µM on Trichoderma viride for COc1cc(/C=C/c2noc(/C=C/c3ccc(O)c(OC)c3)c2/N=N/c2ccc(S(=O)(=O)Nc3nc(C)cc(C)n3)cc2)ccc1O
Response: 9

Request: Query zone of inhibition at 20 µM on Trichoderma viride for COc1cc(/C=C/c2nn(-c3ccccc3)c(/C=C/c3ccc(O)c(OC)c3)c2/N=N/c2ccc(S(=O)(=O)Nc3cc(C)on3)cc2)ccc1O
Response: 9

Request: Query zone of inhibition at 20 µM on Trichoderma viride for COc1cc(/C=C/C(O)=C/C(/C=C/c2ccc(O)c(OC)c2)=N/c2ccc(S(=O)(=O)Nc3nc(C)cc(C)n3)cc2)ccc1O
Response: 18
